molecular target: Human BCMA (human) (UniProt Q02223); experiment: SPR, IgG on chip, huBCMA analyte
QUANTITY KIND: kon (M⁻¹ s⁻¹)
Just the number please, in M⁻¹ s⁻¹, no unit attached.

Answered cases to consult:
>>> observed_result("COMBO_Rd4_0.6nM_C21 (antibody, V domains shown, IgG) VH: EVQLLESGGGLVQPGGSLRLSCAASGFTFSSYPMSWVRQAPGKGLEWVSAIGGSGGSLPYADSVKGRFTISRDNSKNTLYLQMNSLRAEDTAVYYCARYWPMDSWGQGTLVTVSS VL: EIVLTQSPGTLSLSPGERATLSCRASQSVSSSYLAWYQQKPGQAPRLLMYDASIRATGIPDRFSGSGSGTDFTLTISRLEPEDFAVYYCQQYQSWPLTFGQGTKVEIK")
"1.34e+07"
>>> observed_result("A02_Rd4_6nM_C04 (antibody, V domains shown, IgG) VH: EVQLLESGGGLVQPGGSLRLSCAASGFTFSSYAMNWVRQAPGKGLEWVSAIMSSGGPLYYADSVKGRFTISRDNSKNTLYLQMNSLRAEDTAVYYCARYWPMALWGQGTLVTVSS VL: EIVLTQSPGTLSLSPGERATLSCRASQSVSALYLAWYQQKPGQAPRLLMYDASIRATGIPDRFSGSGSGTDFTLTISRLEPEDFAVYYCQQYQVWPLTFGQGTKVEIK")
"4.47e+06"

The binder identified as COMBO_Rd4_6nM_C02 (antibody, V domains shown, IgG) VH: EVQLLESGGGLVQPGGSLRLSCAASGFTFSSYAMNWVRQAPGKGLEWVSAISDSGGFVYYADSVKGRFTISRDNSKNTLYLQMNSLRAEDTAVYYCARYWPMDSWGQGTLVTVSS VL: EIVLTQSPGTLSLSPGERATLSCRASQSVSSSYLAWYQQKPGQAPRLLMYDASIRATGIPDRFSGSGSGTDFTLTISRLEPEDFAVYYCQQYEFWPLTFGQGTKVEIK registered its kon at 1.05e+06
